Test system: MCF7
ASSAY_TEXT: Cytotoxicity against human MCF7 cells assessed as reduction in cell viability after 24 hrs by MTT assay
Type: functional, cell-based
CONDITION_CONTEXT: MCF7, 24 h
Hi! Just check whether IC50 is below 30 µM. Below gives true (1), equal or above gives false (0).

| COMPOUND | ANSWER_LABEL |
| --- | --- |
| OC1(C(F)(F)F)CS/C(=N\c2ccc(Cl)c(C(F)(F)F)c2)N1Cc1ccco1 (stereo not given) | true (1) |
| COc1ccc(N2/C(=N/c3ccc(F)cc3)SCC2(O)C(F)(F)F)cc1 (stereo not given) | true (1) |
| OC1(C(F)(F)F)CS/C(=N\c2ccccc2)N1CCc1c[nH]c2ccccc12 (stereo not given) | true (1) |

# TODO verify IC50 < 30 µM strictly for this compound: OC1(C(F)(F)F)CS/C(=N\c2ccc(Cl)c(C(F)(F)F)c2)N1CCc1ccccn1 (stereo not given)
true (1)

Record OC1(C(F)(F)F)CS/C(=N\c2ccc(Cl)c(C(F)(F)F)c2)N1Cc1cccs1 (stereo not given) : is its IC50 strictly below 30 µM?
true (1)

IC50 strictly < 30 µM for this compound? OC1(C(F)(F)F)CS/C(=N\c2ccc(Cl)c(C(F)(F)F)c2)N1CCN1CCOCC1 (stereo not given)
true (1)

Lab note: IC50 threshold 30 µM. Does this compound come in strictly under it? OC1(C(F)(F)F)CS/C(=N\c2ccccc2)N1Cc1cccs1 (stereo not given)
false (0)

Take the compound CC(C)(C)N1/C(=N/c2ccc(Cl)c(C(F)(F)F)c2)SCC1(O)C(F)(F)F (stereo not given) and say whether its IC50 is less than 30 µM.
false (0)
